target: Protein-tyrosine kinase 2-beta (Homo sapiens) (UniProt Q14289); conditions: at 0.1 µM;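 further: reported as mean percent inhibition of PYK2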
Sequence (Q14289 whole entry, looked up): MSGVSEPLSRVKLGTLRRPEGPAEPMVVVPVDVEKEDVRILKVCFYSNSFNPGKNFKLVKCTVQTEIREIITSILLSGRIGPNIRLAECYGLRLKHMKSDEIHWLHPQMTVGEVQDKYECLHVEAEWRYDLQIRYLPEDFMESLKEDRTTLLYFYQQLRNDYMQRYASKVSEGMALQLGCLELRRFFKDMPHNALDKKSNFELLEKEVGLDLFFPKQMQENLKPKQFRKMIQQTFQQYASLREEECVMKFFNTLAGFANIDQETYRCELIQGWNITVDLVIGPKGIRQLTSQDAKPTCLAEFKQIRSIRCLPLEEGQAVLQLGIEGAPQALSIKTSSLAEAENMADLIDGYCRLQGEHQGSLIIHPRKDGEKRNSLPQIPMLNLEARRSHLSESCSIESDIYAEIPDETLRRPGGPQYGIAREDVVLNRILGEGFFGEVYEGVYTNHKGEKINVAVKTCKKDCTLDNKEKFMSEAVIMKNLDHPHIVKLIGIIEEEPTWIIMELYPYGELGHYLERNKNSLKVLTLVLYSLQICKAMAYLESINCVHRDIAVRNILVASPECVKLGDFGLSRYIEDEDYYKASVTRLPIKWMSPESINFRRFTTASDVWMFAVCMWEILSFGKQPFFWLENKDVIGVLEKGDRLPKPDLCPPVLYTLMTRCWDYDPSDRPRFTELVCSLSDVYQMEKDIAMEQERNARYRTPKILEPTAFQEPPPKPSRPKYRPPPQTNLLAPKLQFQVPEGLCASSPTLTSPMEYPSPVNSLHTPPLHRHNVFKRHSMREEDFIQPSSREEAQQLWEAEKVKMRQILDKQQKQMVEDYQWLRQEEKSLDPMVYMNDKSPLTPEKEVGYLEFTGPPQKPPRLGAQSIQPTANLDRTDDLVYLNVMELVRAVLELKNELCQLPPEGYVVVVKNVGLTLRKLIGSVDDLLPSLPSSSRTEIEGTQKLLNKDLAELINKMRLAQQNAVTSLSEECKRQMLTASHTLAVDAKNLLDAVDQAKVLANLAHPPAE
Property: inhibition; scope: individual molecules
MEASUREMENT_KIND: inhibition (%)

{"MOLECULE": "CC1=C(C(=O)Nc2ccc3[nH]ncc3c2)C(c2ccc(Cl)c(Cl)c2)CC(=O)N1 (stereo not given)", "MEASUREMENT_KIND": "inhibition", "TEST_RESULT": 6.27}
{"MOLECULE": "CNC(=O)c1cncc(/C=C/c2c(Cl)cccc2Cl)c1", "MEASUREMENT_KIND": "inhibition", "TEST_RESULT": 4.56}
{"MOLECULE": "O=C1NC(=O)C(c2ccccc2Cl)=C1Nc1cccc(O)c1", "MEASUREMENT_KIND": "inhibition", "TEST_RESULT": 5.7}
{"MOLECULE": "COc1cc2c(cc1Nc1nc(N3CCc4ccccc43)c3cc[nH]c3n1)N(C(=O)CN(C)C)CC2", "MEASUREMENT_KIND": "inhibition", "TEST_RESULT": 59.7}
{"MOLECULE": "Cn1cc(C=C2C(=O)Nc3cccnc32)c2ccccc21", "MEASUREMENT_KIND": "inhibition", "TEST_RESULT": 5.59}
{"MOLECULE": "Fc1cccc(COc2ccc(Nc3ncnc4cc(-c5ccc[nH]5)sc34)cc2Cl)c1", "MEASUREMENT_KIND": "inhibition", "TEST_RESULT": 7.86}
{"MOLECULE": "CCn1c(-c2nonc2N)nc2c(N3CCCC3)nccc21", "MEASUREMENT_KIND": "inhibition", "TEST_RESULT": 1.2}
{"MOLECULE": "c1cnn2ncc(-c3ccnc(Nc4ccc5c(c4)OCCO5)n3)c2c1", "MEASUREMENT_KIND": "inhibition", "TEST_RESULT": 32.6}
{"MOLECULE": "CS(=O)(=O)CCNCc1ccc(-c2ccc3ncnc(Nc4ccc(OCc5ccccc5)c(Cl)c4)c3c2)o1", "MEASUREMENT_KIND": "inhibition", "TEST_RESULT": 5.42}
{"MOLECULE": "COc1cc(C)c(NC(=O)CN(C)C)cc1Nc1nc(Nc2cccc(F)c2C(N)=O)c2cc[nH]c2n1", "MEASUREMENT_KIND": "inhibition", "TEST_RESULT": 93.1}
{"MOLECULE": "Nc1nc(-c2ccc3c(c2)C(=Cc2cc(Br)c(O)c(Br)c2)C(=O)N3)cs1", "MEASUREMENT_KIND": "inhibition", "TEST_RESULT": -1.15}
{"MOLECULE": "Cc1nn(C)c2cc(N(C)c3ccnc(Nc4cccc(S(N)(=O)=O)c4)n3)ccc12", "MEASUREMENT_KIND": "inhibition", "TEST_RESULT": 9.35}
{"MOLECULE": "CS(=O)(=O)CCNCc1nc(-c2ccc3ncnc(Nc4ccc(F)c(Cl)c4)c3c2)cs1", "MEASUREMENT_KIND": "inhibition", "TEST_RESULT": -0.72}
{"MOLECULE": "Cc1cccc(-c2n[nH]cc2-c2ccc3ncccc3n2)n1", "MEASUREMENT_KIND": "inhibition", "TEST_RESULT": -4.16}
{"MOLECULE": "COc1cccc(-n2ncc3c(N/N=C/c4cccc(F)c4)ncnc32)c1", "MEASUREMENT_KIND": "inhibition", "TEST_RESULT": 9.51}
